- Test system: Trypanosoma brucei brucei
- Assay overview: Trypanocidal activity against bloodstream forms of Trypanosoma brucei brucei Lister 427 clone 221a after 72 hrs by AlamarBlue assay
- Type: functional, organism-based
Readout label: IC50 (µM)
Quick reminder: number only, in µM, skip the unit.

Answer with the recorded IC50 of CC1CS(=O)(=O)CCN1/N=C/c1ccc([N+](=O)[O-])o1 (centres undefined) [NIFURTIMOX] only.
2.9

Answer with the recorded IC50 of "COc1cccc(/C=C/C(=O)c2c(O)c3ccccc3[nH]c2=O)c1" only.
6.5

Answer with the recorded IC50 of "COc1ccc(/C=C/C(=O)c2c(O)c3ccccc3[nH]c2=O)cc1OC" only.
4.9

Answer with the recorded IC50 of CC(=O)N1N=C(c2c(O)c3ccccc3[nH]c2=O)CC1c1ccccc1C (centres undefined) only.
1.43

Answer with the recorded IC50 of "COc1ccc(/C=C/C(=O)c2c(O)c3ccccc3n(Cc3ccccc3)c2=O)cc1OC" only.
5.68

Answer with the recorded IC50 of "COc1cc(/C=C/C(=O)c2c(O)c3ccccc3[nH]c2=O)ccc1O" only.
4.9

Answer with the recorded IC50 of COc1ccc(C2CC(c3c(O)c4ccccc4[nH]c3=O)=NN2c2ccccc2)cc1OC (centres undefined) only.
1.46

Answer with the recorded IC50 of "Cc1ccccc1/C=C/C(=O)c1c(O)c2ccccc2[nH]c1=O" only.
2.6

Answer with the recorded IC50 of "Cc1ccccc1/C=C/C(=O)c1c(O)c2ccccc2n(Cc2ccccc2)c1=O" only.
6.17

Answer with the recorded IC50 of "CC(C)(C)c1cc(/C=C/C(=O)c2c(O)c3ccccc3[nH]c2=O)cc(C(C)(C)C)c1O" only.
3.3

The reported numbers originate from ChEMBL document CHEMBL2440105.
